Target: Recombinant human MMP-13 (Homo sapiens, UniProt P45452)
Construct: made in house; host or cells: baculovirus / insect cells
Experiment: biochemical
Settings: fluorogenic MCA-peptide substrate, pH 7.5, room temperature; read-out: MMP-13 IC50
Procedure: Recombinant human MMP-1, MMP-2, MMP-9, MMP-13, and were used in this assay. These enzymes were prepared in the Assignee's es following usual laboratory procedures. […] These solutions were then compared to a control (which contained equal amount of DMSO/buffer solution, but no hydroxamate compound) using Microfluor™ White Plates (Dynatech, Chantilly, Va.). […] The IC50's were then calculated from these measurements.
IC50 listing for selected compounds.

Solved cases (3 shown):
COCCN1CCC(C(=O)NO)(S(=O)(=O)c2ccc(N3CCC(C(=O)c4ccc(CCC(C)O)cc4)CC3)cc2)CC1 (stereo not shown)	1.1 nM
Cc1ccc(C(=O)C2CCN(c3ccc(S(=O)(=O)C4(C(=O)NO)CCN(S(C)(=O)=O)CC4)cc3)CC2)cc1	1.1 nM
O=C(NO)C1(S(=O)(=O)c2ccc(N3CCC(c4ccc(Cl)cc4)CC3)cc2)CCN(C2CC2)CC1 [Example 270]	1.1 nM

Request: Query IC50 for COCCN1CCC(C(=O)NO)(S(=O)(=O)c2ccc(N3CCC(C(=O)c4ccc(CC(C)CO)cc4)CC3)cc2)CC1 (stereo not shown)
Response: 0.5 nM

Request: Query IC50 for `O=C(c1ccc(Br)cc1)C1CCN(c2ccc(S(=O)(=O)C3(C(=O)NO)CCN(C4CC4)CC3)cc2)CC1`
Response: 0.2 nM

Request: Query IC50 for `CC(C)N1CCN(C(=O)C2CCN(c3ccc(S(=O)(=O)C4(C(=O)NO)CCOCC4)cc3)CC2)CC1`
Response: 28 nM

Request: Query IC50 for `COCCN1CCC(C(=O)NO)(S(=O)(=O)c2ccc(N3CCC(C(=O)c4ccc(OC)cc4)CC3)cc2)CC1`
Response: 0.7 nM

Request: Query IC50 for `Cc1ccc(C2CCN(c3ccc(S(=O)(=O)C4(C(=O)NO)CCN(CC5CC5)CC4)cc3)CC2)cc1`
Response: 2.5 nM

---

Target: Recombinant human MMP-2 (Homo sapiens)
Construct: made in house
Sequence (P08253 110-660): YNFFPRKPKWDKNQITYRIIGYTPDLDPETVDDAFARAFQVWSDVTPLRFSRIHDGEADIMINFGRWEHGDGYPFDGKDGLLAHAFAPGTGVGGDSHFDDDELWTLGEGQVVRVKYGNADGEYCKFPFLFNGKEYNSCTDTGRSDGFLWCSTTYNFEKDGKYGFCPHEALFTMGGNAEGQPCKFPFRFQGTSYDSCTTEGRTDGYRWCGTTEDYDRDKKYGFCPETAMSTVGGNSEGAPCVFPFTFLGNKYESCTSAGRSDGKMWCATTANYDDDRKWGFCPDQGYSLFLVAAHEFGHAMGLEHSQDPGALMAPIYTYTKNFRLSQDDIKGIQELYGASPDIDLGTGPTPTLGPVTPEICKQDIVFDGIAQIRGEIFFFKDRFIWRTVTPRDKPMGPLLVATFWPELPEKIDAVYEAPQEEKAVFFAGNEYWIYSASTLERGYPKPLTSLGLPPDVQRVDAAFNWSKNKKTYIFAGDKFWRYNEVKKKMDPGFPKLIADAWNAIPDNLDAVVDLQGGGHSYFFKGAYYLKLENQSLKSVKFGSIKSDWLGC
Test: biochemical
Settings: fluorogenic MCA-peptide substrate, pH 7.5, room temperature; read-out: MMP-2 IC50
pIC50 listing for selected molecules.
In textbook form, pIC50 equals minus log to base ten of the concentration in mol/L.

Solved cases (3 shown):
C=CCN1CCC(C(=O)NO)(S(=O)(=O)c2ccc(N3CCC(C(=O)c4ccc(N(C)CC)cc4)CC3)cc2)CC1	6.03
COCCN1CCC(C(=O)NO)(S(=O)(=O)c2ccc(N3CCC(c4nc5ccccc5o4)CC3)cc2)CC1	7.34
C#CCN1CCC(C(=O)NO)(S(=O)(=O)c2ccc(N3CCC(C(=O)c4ccc(NC)cc4)CC3)cc2)CC1	6.93

Request: Recall the reported pIC50 of `COCCN1CCC(C(=O)NO)(S(=O)(=O)c2ccc(N3CCC(Sc4nccs4)CC3)cc2)CC1` when tested on Recombinant human MMP-2 (Homo sapiens).
Response: 7.45

---

Biological target: Recombinant human MMP-13 (Homo sapiens)
Construct: made in house; host or cells: baculovirus / insect cells
Assay: biochemical
Conditions: fluorogenic MCA-peptide substrate, pH 7.5, room temperature; read-out: MMP-13 IC50
pIC50 listing for selected molecules.
In textbook form, pIC50 equals minus log to base ten of the concentration in mol/L.

Request: Query pIC50 for `C#CCN1CCC(C(=O)NO)(S(=O)(=O)c2ccc(N3CCC(C(=O)c4ccc5ccccc5c4)CC3)cc2)CC1`
Response: 9.15

Request: Query pIC50 for `CCCc1ccc(C(=O)C2CCN(c3ccc(S(=O)(=O)C4(C(=O)NO)CCN(CCOC)CC4)cc3)CC2)cc1`
Response: 9.07

Request: Query pIC50 for `O=C(c1ccc(Br)cc1)C1CCN(c2ccc(S(=O)(=O)C3(C(=O)NO)CCOCC3)cc2)CC1`
Response: 9.52

Request: Query pIC50 for `CC(C)Oc1ccc(C(=O)C2CCN(c3ccc(S(=O)(=O)C4(C(=O)NO)CCN(C5CC5)CC4)cc3)CC2)cc1`
Response: 9.05

Request: Query pIC50 for `CCN1CCC(C(=O)NO)(S(=O)(=O)c2ccc(N3CCC(C(=O)c4ccc(CC5CC5)cc4)CC3)cc2)CC1`
Response: 8.89

Request: Query pIC50 for CCN1CCC(C(=O)NO)(S(=O)(=O)c2ccc(N3CCC(C(=O)c4ccc(CCCC(C)O)cc4)CC3)cc2)CC1 (stereo not shown)
Response: 9.52

Request: Query pIC50 for `COCCN1CCC(C(=O)NO)(S(=O)(=O)c2ccc(N3CCC(C(=O)c4ccc(CC5CCCC5)cc4)CC3)cc2)CC1`
Response: 9.40
